A set of compounds tested on Staphylococcus aureus 209P JC-1, with measured MIC:
measure: MIC

Nc1nc(/C(=N/O)C(=O)NC2C(=O)N3C(C(=O)O)=C(SC4CCOC4)CS[C@H]23)cs1 (some centres unmarked)	0.2 µg/mL
CO/N=C(\C(=O)NC1C(=O)N2C(C(=O)O)=C(SCC3CCOC3)CS[C@H]12)c1csc(N)n1 (some centres unmarked)	1.56 µg/mL
CO/N=C(\C(=O)NC1C(=O)N2C(C(=O)O)=C(SCC3CCOCC3)CS[C@H]12)c1csc(N)n1 (some centres unmarked)	1.56 µg/mL
CO/N=C(\C(=O)NC1C(=O)N2C(C(=O)O)=C(SCC3COCOC3)CS[C@H]12)c1csc(N)n1 (some centres unmarked)	0.78 µg/mL
CO/N=C(\C(=O)NC1C(=O)N2C(C(=O)O)=C(SCC3COC(C)(C)O3)CS[C@H]12)c1csc(N)n1 (some centres unmarked)	1.56 µg/mL

###

tested on: Citrobacter freundii GN346/16; experiment: antibacterial activity, MIC by standard serial dilution method; assay type: cell-based
measure: MIC (µg/mL)

Nc1nc(/C(=N/O)C(=O)NC2C(=O)N3C(C(=O)O)=C(SCC4CCCCO4)CS[C@H]23)cs1 (stereo partly drawn)	12.5
CO/N=C(\C(=O)NC1C(=O)N2C(C(=O)O)=C(SCC3CCOC3)CS[C@H]12)c1csc(N)n1 (stereo partly drawn)	3.13
CO/N=C(\C(=O)NC1C(=O)N2C(C(=O)O)=C(SC3CCOC3)CS[C@H]12)c1csc(N)n1 (stereo partly drawn)	3.13
CO/N=C(\C(=O)NC1C(=O)N2C(C(=O)O)=C(SCC3CCOC(C)(C)O3)CS[C@H]12)c1csc(N)n1 (stereo partly drawn)	6.25
CC1(C)OCCC(CSC2=C(C(=O)O)N3C(=O)C(NC(=O)/C(=N\O)c4csc(N)n4)[C@H]3SC2)O1 (stereo partly drawn)	12.5
Nc1nc(/C(=N/O)C(=O)NC2C(=O)N3C(C(=O)O)=C(SC4COCOC4)CS[C@H]23)cs1 (stereo partly drawn)	3.13
Nc1nc(/C(=N/O)C(=O)NC2C(=O)N3C(C(=O)O)=C(SCC4CCOCC4)CS[C@H]23)cs1 (stereo partly drawn)	6.25
CO/N=C(\C(=O)NC1C(=O)N2C(C(=O)O)=C(SCC3CCCCO3)CS[C@H]12)c1csc(N)n1 (stereo partly drawn)	6.25
CO/N=C(\C(=O)NC1C(=O)N2C(C(=O)O)=C(SCC3COC(C)(C)O3)CS[C@H]12)c1csc(N)n1 (stereo partly drawn)	6.25
Nc1nc(/C(=N/O)C(=O)NC2C(=O)N3C(C(=O)O)=C(SCC4CCCO4)CS[C@H]23)cs1 (stereo partly drawn)	6.25
Nc1nc(/C(=N/O)C(=O)NC2C(=O)N3C(C(=O)O)=C(SC4CCOCC4)CS[C@H]23)cs1 (stereo partly drawn)	6.25
CO/N=C(\C(=O)NC1C(=O)N2C(C(=O)O)=C(SCC3COCOC3)CS[C@H]12)c1csc(N)n1 (stereo partly drawn)	3.13

###

tested on: Enterobacter hirae ATCC8043
Entries and their MIC
measure: MIC

CO/N=C(\C(=O)NC1C(=O)N2C(C(=O)O)=C(SCC3CCOC3)CS[C@H]12)c1csc(N)n1 (stereo partly drawn) [Compound No. 27]	> 100 µg/mL
CO/N=C(\C(=O)NC1C(=O)N2C(C(=O)O)=C(SCC3COCO3)CS[C@H]12)c1csc(N)n1 (stereo partly drawn) [Compound No. 29]	> 100 µg/mL
CO/N=C(\C(=O)NC1C(=O)N2C(C(=O)O)=C(SCC3COCOC3)CS[C@H]12)c1csc(N)n1 (stereo partly drawn) [Compound No. 33]	> 100 µg/mL

The measured values listed here are drawn from patent US5332731A.
